# Tested On: T1, human CD70 expressed on the surface of cells (human, UniProt P32970 1-193)
# T1 sequence (looked up): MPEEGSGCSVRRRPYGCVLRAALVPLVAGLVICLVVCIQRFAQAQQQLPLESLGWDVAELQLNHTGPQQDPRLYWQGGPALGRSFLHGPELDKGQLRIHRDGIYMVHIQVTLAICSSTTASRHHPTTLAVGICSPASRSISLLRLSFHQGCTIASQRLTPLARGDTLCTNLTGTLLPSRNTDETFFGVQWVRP
# Experiment: cell-based or functional assay
Measured Attribute: IC50 (ng/ml), IL-8 secretion in Raji / HT1080-CD27 co-culture assay (ng/mL)

# Binder, Result
records = [
    ("5B2 chimeric llama-human mAb (antibody, human IgG1, V domains shown) VH: QVQLVESGGDLVQPGGSLRLSCAASGFTVSNPAMSWVRQAPGKGLEWVSEITNYGYNRYYADSVKGRFTISTDNAKNTLYLQMNSLRSEDSAVYYCTASLGLEYGYGDWGQGTQVTVSS VL: QSALTQPPSVSGTLGKTLTISCAGTSSDVGYGNYVSWYQQLPGTAPKLLIYRVSTRASGMPDRFSGSKSGNTASLTISGLQSEDEADYYCASYTTNNKPVFGGGTHLTVLG", 19),
    ("27B3 chimeric llama-human mAb (antibody, human IgG1, V domains shown, also called SIMPLE antibody 27B3; mAb 27B3) VH: EVQLVESGGGLVQPGGSLRLSCAASGFTFSVYYMNWVRQAPGKGLEWVSDINNEGGTTYYADSVKGRFTISRDNAKNTLTLQMNSLKPEDTALYYCVRDAGYSNHVPIFDSWGQGTQVIVAS VL: QAVVTQEPSLTVSPGGTVTLTCGLKSGSVTSTNFPTWYQQTPGQAPRLLIYNTNTRHSGVPSRFSGSISENKAALTITGAQPEDEAEYFCALFISNPSVEFGGGTQLTVLS", 5),
    ("59D10 chimeric llama-human mAb (antibody, human IgG1, V domains shown) VH: EVQLVESGGGLVQPGGSLRLSCAASELSFSISEMTWVRQAPGKGLEWVSGISGVTGGSSTSYADSVKGRFTISRDNDKNTLYLQMNSLIPEDTAVYYCATTSGTYYFIPEYEYWGQGTQVTVSS VL: QSVLTQPPSVSGSPGKTVTISCAGTSSDVGYGYYVSWYQQFPGMAPKLLIYDVNKRASGIADRFSGSKAGNTASLTISGLQSEDEADYYCASYRSSANAVFGGGTHLTVLG", 10),
]
